tested_system: Integrin alpha-V/beta-3 (Homo sapiens, UniProt P05106+P06756)
Sequence (P05106 27-788 limits assumed): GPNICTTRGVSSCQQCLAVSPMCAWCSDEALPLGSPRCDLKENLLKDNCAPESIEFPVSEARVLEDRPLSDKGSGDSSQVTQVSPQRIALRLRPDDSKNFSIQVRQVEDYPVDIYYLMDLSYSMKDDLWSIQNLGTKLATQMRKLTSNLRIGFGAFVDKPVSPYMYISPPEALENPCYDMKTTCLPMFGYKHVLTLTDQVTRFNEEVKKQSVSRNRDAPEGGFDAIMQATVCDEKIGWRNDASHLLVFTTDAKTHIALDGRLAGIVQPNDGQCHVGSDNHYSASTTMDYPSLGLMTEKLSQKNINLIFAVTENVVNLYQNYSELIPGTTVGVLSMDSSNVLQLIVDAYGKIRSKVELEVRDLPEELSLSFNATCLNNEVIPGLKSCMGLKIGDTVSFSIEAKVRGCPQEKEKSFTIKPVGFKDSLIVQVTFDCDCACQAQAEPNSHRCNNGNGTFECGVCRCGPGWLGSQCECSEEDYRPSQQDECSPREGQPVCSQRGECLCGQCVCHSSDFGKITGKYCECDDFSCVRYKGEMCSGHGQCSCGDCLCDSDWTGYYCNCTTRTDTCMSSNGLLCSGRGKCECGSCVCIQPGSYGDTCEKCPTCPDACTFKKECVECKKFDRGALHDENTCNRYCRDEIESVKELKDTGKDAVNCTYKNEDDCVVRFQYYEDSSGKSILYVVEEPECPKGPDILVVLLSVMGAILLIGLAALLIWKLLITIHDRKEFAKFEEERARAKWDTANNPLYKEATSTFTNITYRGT
Sequence (P06756 31-889 limits assumed): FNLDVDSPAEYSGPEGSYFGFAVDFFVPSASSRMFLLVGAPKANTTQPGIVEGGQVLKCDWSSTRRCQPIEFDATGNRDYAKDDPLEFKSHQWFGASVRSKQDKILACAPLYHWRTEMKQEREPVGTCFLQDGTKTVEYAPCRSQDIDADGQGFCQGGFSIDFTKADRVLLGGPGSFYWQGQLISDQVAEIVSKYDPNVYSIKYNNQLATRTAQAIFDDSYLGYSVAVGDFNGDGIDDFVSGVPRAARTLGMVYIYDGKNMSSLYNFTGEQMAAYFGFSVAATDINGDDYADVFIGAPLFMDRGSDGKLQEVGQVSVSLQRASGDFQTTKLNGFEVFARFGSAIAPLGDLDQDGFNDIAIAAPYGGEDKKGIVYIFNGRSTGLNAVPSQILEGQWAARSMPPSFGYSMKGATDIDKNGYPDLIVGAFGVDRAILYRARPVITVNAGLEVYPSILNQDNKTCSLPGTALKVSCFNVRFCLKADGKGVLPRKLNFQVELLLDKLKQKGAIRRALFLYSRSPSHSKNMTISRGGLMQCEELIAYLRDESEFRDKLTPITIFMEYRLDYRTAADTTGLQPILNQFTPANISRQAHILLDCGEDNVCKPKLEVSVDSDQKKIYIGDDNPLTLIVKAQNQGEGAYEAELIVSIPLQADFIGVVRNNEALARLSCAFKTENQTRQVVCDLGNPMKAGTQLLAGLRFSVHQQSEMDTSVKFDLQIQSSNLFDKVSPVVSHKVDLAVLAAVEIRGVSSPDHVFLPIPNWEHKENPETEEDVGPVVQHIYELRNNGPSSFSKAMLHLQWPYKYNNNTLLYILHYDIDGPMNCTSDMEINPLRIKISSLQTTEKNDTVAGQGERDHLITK
Sequence (P06756 891-1048 limits assumed): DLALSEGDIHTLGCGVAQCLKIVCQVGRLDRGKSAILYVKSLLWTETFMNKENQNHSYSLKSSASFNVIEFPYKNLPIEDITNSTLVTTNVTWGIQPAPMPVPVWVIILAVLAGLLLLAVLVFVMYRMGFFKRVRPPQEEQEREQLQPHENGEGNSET
measurement_description: Inhibition of binding to alphaV-beta3 integrin
pIC50: −log10 of the molar value.
attribute_measured: pIC50

molecule	pIC50
N=C(N)Nc1cccc(C(=O)NNC(=O)N[C@@H](CC(=O)O)C(N)=O)c1	6.82
CC(C)C[C@H]1NC(=O)[C@H](CCCN=C(N)N)NC(=O)CNC(=O)[C@@H](CC(=O)O)NC(=O)[C@@H](Cc2ccccc2)NC1=O	7.40
CC(C)C[C@H]1C(=O)N[C@@H](CCCNC(=N)N)C(=O)NCC(=O)N[C@@H](CC(=O)O)C(=O)N[C@@H]2CCN1C2=O	9.10
CC(C)C[C@H]1C(=O)N[C@@H](CCCN=C(N)N)C(=O)NCC(=O)N[C@@H](CC(=O)O)C(=O)N[C@H](Cc2ccccc2)C(=O)N1C	9.22

[I] NC(=O)[C@@H](CC(=O)O)NC(=O)NNC(=O)c1cccc(N=C(N)N)c1
[II] N=C(N)Nc1cccc(C(=O)NNC(=O)NC(CC(=O)O)c2ccccc2)c1 (stereo unspecified)
Between I and II , which one shows the smaller pIC50 number? # reply format: chosen label I
